System: RARb homodimer (NR concentration 270 nM)
assay-remarks: PBM binding z-score (relative to random genomic background probes); higher = stronger binding; sequences stand for … in GC…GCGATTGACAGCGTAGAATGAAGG
Entries get a class label from measured PBM binding z-score. See ranges: bin 1 = under 1, bin 2 = from 1 up to 3, bin 3 = 3 and over

[[record]]
chain_sequence = "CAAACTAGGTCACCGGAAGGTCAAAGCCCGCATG"
experimental_target = "RARb homodimer (NR concentration 270 nM)"
class = "bin 3"

[[record]]
chain_sequence = "TTACCAAGGTGAGATGAGGTCGTTGATCCAACTC"
experimental_target = "RARb homodimer (NR concentration 270 nM)"
class = "bin 2"

[[record]]
chain_sequence = "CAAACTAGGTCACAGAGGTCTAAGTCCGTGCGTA"
experimental_target = "RARb homodimer (NR concentration 270 nM)"
class = "bin 3"

[[record]]
chain_sequence = "AGTCAAAGTTCAGGACGAGGGAACGTAAAGCACG"
experimental_target = "RARb homodimer (NR concentration 270 nM)"
class = "bin 2"

[[record]]
chain_sequence = "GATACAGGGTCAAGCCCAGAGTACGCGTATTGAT"
experimental_target = "RARb homodimer (NR concentration 270 nM)"
class = "bin 3"

[[record]]
chain_sequence = "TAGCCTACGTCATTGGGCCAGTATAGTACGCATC"
experimental_target = "RARb homodimer (NR concentration 270 nM)"
class = "bin 1"

[[record]]
chain_sequence = "ATCTCTAGGTATAAGTTCAGTGAATCCCGAGGAT"
experimental_target = "RARb homodimer (NR concentration 270 nM)"
class = "bin 2"

[[record]]
chain_sequence = "ATCAAAAGGTCGTGAGGTGAGTATACAGAAAGGC"
experimental_target = "RARb homodimer (NR concentration 270 nM)"
class = "bin 3"

[[record]]
chain_sequence = "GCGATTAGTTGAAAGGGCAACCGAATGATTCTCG"
experimental_target = "RARb homodimer (NR concentration 270 nM)"
class = "bin 2"

[[record]]
chain_sequence = "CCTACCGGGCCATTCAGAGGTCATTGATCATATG"
experimental_target = "RARb homodimer (NR concentration 270 nM)"
class = "bin 3"

[[record]]
chain_sequence = "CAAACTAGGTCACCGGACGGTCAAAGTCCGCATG"
experimental_target = "RARb homodimer (NR concentration 270 nM)"
class = "bin 3"

[[record]]
chain_sequence = "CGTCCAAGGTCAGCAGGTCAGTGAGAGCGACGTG"
experimental_target = "RARb homodimer (NR concentration 270 nM)"
class = "bin 3"

[[record]]
chain_sequence = "CTCGAAAGGTCGTGCTCATGTGAGTATACCAAAC"
experimental_target = "RARb homodimer (NR concentration 270 nM)"
class = "bin 2"

[[record]]
chain_sequence = "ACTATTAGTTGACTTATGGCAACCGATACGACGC"
experimental_target = "RARb homodimer (NR concentration 270 nM)"
class = "bin 1"

[[record]]
chain_sequence = "CCTAGCAGGCCAGGGTCACGCAAGCATTTCGCTT"
experimental_target = "RARb homodimer (NR concentration 270 nM)"
class = "bin 3"

[[record]]
chain_sequence = "TAGCCTTGGTCATTCAGGGGCCAGTATAGAAAGC"
experimental_target = "RARb homodimer (NR concentration 270 nM)"
class = "bin 2"

[[record]]
chain_sequence = "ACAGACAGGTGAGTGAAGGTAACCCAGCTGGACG"
experimental_target = "RARb homodimer (NR concentration 270 nM)"
class = "bin 1"

[[record]]
chain_sequence = "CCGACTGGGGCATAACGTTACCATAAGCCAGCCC"
experimental_target = "RARb homodimer (NR concentration 270 nM)"
class = "bin 1"

[[record]]
chain_sequence = "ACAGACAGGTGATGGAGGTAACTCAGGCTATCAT"
experimental_target = "RARb homodimer (NR concentration 270 nM)"
class = "bin 1"

[[record]]
chain_sequence = "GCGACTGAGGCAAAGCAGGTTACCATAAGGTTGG"
experimental_target = "RARb homodimer (NR concentration 270 nM)"
class = "bin 1"

[[record]]
chain_sequence = "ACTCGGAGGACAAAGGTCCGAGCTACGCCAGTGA"
experimental_target = "RARb homodimer (NR concentration 270 nM)"
class = "bin 1"

[[record]]
chain_sequence = "CTCGATAGGTCGTGCTCAGGTGAGTATACCAAAC"
experimental_target = "RARb homodimer (NR concentration 270 nM)"
class = "bin 2"

[[record]]
chain_sequence = "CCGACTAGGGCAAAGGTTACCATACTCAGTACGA"
experimental_target = "RARb homodimer (NR concentration 270 nM)"
class = "bin 2"

[[record]]
chain_sequence = "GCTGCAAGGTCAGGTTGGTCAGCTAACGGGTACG"
experimental_target = "RARb homodimer (NR concentration 270 nM)"
class = "bin 3"

[[record]]
chain_sequence = "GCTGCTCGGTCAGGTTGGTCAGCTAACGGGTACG"
experimental_target = "RARb homodimer (NR concentration 270 nM)"
class = "bin 2"

[[record]]
chain_sequence = "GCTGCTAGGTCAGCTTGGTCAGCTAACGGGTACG"
experimental_target = "RARb homodimer (NR concentration 270 nM)"
class = "bin 2"

[[record]]
chain_sequence = "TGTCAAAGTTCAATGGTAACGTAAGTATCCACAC"
experimental_target = "RARb homodimer (NR concentration 270 nM)"
class = "bin 3"

[[record]]
chain_sequence = "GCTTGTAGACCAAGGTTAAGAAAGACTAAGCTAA"
experimental_target = "RARb homodimer (NR concentration 270 nM)"
class = "bin 1"

[[record]]
chain_sequence = "CAGCCTAGGTCAGGCCCAGTATAGGAGGAACGTT"
experimental_target = "RARb homodimer (NR concentration 270 nM)"
class = "bin 2"

[[record]]
chain_sequence = "TTACCAAGGTGAGCTGAAGTCGTTGATCCAACTC"
experimental_target = "RARb homodimer (NR concentration 270 nM)"
class = "bin 1"

[[record]]
chain_sequence = "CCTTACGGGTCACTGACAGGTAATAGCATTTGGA"
experimental_target = "RARb homodimer (NR concentration 270 nM)"
class = "bin 2"

[[record]]
chain_sequence = "TCGAGTAGGTTACCAATGGGGAATTCAGCTTTCT"
experimental_target = "RARb homodimer (NR concentration 270 nM)"
class = "bin 1"

[[record]]
chain_sequence = "ATAGAAAGGTCGTGAGGTGAGTATACAGAAAGGC"
experimental_target = "RARb homodimer (NR concentration 270 nM)"
class = "bin 3"

[[record]]
chain_sequence = "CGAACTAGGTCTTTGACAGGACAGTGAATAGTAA"
experimental_target = "RARb homodimer (NR concentration 270 nM)"
class = "bin 1"

[[record]]
chain_sequence = "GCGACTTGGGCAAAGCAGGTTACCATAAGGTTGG"
experimental_target = "RARb homodimer (NR concentration 270 nM)"
class = "bin 1"

[[record]]
chain_sequence = "AGCTCTAGGTAACCAAGTTCAGTGAATGCCGAAC"
experimental_target = "RARb homodimer (NR concentration 270 nM)"
class = "bin 2"

[[record]]
chain_sequence = "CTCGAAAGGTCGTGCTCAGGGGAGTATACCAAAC"
experimental_target = "RARb homodimer (NR concentration 270 nM)"
class = "bin 2"

[[record]]
chain_sequence = "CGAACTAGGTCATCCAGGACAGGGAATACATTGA"
experimental_target = "RARb homodimer (NR concentration 270 nM)"
class = "bin 2"

[[record]]
chain_sequence = "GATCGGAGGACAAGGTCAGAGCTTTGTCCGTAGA"
experimental_target = "RARb homodimer (NR concentration 270 nM)"
class = "bin 3"

[[record]]
chain_sequence = "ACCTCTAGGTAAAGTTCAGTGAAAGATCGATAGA"
experimental_target = "RARb homodimer (NR concentration 270 nM)"
class = "bin 2"

[[record]]
chain_sequence = "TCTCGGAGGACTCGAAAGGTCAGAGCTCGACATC"
experimental_target = "RARb homodimer (NR concentration 270 nM)"
class = "bin 3"

[[record]]
chain_sequence = "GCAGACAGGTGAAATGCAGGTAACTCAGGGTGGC"
experimental_target = "RARb homodimer (NR concentration 270 nM)"
class = "bin 1"

[[record]]
chain_sequence = "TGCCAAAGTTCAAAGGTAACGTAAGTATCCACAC"
experimental_target = "RARb homodimer (NR concentration 270 nM)"
class = "bin 3"

[[record]]
chain_sequence = "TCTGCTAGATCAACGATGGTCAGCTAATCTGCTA"
experimental_target = "RARb homodimer (NR concentration 270 nM)"
class = "bin 1"

[[record]]
chain_sequence = "TCCTGTAGATCAAGCAGGTTAAGAAAGCCTGAGT"
experimental_target = "RARb homodimer (NR concentration 270 nM)"
class = "bin 1"

[[record]]
chain_sequence = "TCTATTAGTTGATTAGGGTAACCGAAACAGCGGA"
experimental_target = "RARb homodimer (NR concentration 270 nM)"
class = "bin 1"

